Data provenance: ChEMBL document CHEMBL4325838

tested on: Staphylococcus aureus; assay: microbe, parasite or virus in culture; conditions: ATCC 43300
Description: Antibacterial activity against methicillin-resistant Staphylococcus aureus ATCC 43300 after 18 to 20 hrs by broth microdilution assay
Form field: MIC (one value per entry).
Test readout: MIC (µg/mL)

>  <Molecule>
CCCCCCCCCCCCCCCC1O[C@@H]2[C@@H]3C[C@H]([C@@H]2O1)[C@@H](C(=O)NCCNC(=N)NCc1ccccc1)[C@@H]3C(=O)NCCNC(=N)NCc1ccccc1.Cl.Cl (stereo partly drawn)

>  <Test readout>
MIC

>  <Bound operator>
=

>  <Observed measurement>
0.25

$$$$
>  <Molecule>
Cl.Cl.N=C(N)NCCNC(=O)[C@@H]1[C@@H]2C[C@@H]([C@H]3OC(CCCCCCCCCCCNc4ccc([N+](=O)[O-])c5nonc45)O[C@@H]23)[C@H]1C(=O)NCCNC(=N)N (stereo partly drawn)

>  <Test readout>
MIC

>  <Bound operator>
=

>  <Observed measurement>
1

$$$$
>  <Molecule>
CCCCCCCC1O[C@@H]2[C@@H]3C[C@H]([C@@H]2O1)[C@@H](C(=O)NCCNC(=O)c1ccc(C(=O)NC(=N)N)[nH]1)[C@@H]3C(=O)NCCNC(=O)c1ccc(C(=O)NC(=N)N)[nH]1.Cl.Cl (stereo partly drawn)

>  <Test readout>
MIC

>  <Bound operator>
>

>  <Observed measurement>
128

$$$$
